molecular target: Recombinant PKCβ (Homo sapiens); test: PKCb assay: phosphorylation of Histone H3 (Ser10) by recombinant PKCβ, immunoblot, no lipid activator; details: basal PKCb, lipid activator not included; P-Ser10-Histone H3 by immunoblotting, 30° C., 6 minutes
Sequence (P05771 whole entry, species assumed): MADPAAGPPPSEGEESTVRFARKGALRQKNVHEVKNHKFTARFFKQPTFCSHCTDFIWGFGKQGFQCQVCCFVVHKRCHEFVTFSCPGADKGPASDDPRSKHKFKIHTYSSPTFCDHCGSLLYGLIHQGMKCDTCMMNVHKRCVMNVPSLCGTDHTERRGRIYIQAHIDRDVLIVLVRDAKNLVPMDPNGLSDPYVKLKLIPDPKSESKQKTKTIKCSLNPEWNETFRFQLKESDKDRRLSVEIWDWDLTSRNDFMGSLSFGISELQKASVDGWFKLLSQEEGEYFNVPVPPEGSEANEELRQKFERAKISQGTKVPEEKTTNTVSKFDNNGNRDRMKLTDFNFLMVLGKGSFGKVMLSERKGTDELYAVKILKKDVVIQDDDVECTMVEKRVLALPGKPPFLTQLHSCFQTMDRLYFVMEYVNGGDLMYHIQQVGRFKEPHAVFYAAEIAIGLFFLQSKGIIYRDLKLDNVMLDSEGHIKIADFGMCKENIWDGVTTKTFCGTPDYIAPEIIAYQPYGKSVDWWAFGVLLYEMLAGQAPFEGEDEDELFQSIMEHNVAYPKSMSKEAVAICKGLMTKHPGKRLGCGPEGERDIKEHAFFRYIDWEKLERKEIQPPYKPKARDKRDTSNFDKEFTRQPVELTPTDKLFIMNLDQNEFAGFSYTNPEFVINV
reported.property: IC50 (µM)
Just the number in µM, nothing appended.

• Cn1cc(-c2c(-c3c[nH]c4ccccc34)[nH][nH]c2=O)c2ccccc21 = 0.01

Next, consider the following molecule.
Prompt: Fill in reported IC50 for this entry: `N#CCCCCCn1cc(C2=C(c3cn(CCCCCC#N)c4ccccc34)C(=O)NC2=O)c2ccccc21`
Response: 0.05

Origin of the recorded values: patent US20230203017A1
